Data provenance is ChEMBL document CHEMBL3988442.

# assayed.system: Tyrosyl-tRNA synthetase, putative (Trypanosoma cruzi (strain CL Brener)) (UniProt Q4DSP6)
# Sequence (Q4DSP6 as listed by the source): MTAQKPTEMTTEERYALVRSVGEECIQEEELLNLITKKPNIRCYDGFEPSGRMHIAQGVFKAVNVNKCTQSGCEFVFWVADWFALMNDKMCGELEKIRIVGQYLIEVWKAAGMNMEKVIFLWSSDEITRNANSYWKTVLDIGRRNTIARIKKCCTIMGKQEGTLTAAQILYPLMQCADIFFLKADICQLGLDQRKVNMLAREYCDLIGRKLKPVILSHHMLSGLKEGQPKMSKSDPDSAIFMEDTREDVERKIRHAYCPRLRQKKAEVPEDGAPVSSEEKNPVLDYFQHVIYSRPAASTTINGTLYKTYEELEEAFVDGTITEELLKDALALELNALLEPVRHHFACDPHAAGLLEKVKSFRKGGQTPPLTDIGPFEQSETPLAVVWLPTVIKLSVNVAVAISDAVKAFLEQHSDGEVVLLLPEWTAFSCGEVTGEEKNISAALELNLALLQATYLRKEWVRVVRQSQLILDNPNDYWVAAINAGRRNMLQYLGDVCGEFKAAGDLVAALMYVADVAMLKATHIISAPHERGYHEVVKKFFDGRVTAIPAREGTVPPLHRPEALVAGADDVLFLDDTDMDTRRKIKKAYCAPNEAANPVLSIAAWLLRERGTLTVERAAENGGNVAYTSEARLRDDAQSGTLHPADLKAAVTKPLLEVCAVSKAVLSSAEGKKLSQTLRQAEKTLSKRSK
# procedure.details: Trypanosoma cruzi tyrosyl tRNA synthetase (TcYRS) SOP
# Type: functional
# Parameters: scale not given: direction of the effect not stated beside the values
# test.settings: 30 µM
readout.label: Percent Effect (%)

| compound | readout.label | test.value |
| --- | --- | --- |
| O=C(c1cccc(Cl)c1)N1CC[C@H]2[C@H]1CCN2CC1CCOCC1 | Percent Effect | 3.85 |
| CC(C(=O)NCCOc1ccc2c(c1)OCO2)n1cncn1 (centres undefined) | Percent Effect | 13.9 |
| CC(C)n1c(=O)nc2n1C(=O)N(c1ccccc1)C2 | Percent Effect | 18.2 |
| CSc1sc(NC(=O)Cc2c(C)nc(C)[nH]c2=O)nc1C | Percent Effect | 12.2 |
| c1ccc2sc(N3CCOC(Cn4cccn4)C3)nc2c1 (centres undefined) | Percent Effect | 25.9 |
| O=C(CCc1cc2n(n1)CCCN(C(=O)c1cccnc1)C2)NC1CC1 | Percent Effect | 7.69 |
| CN1CCN(C(=O)c2cnc3c(cnn3C3CCCC3)c2)CC1 | Percent Effect | 16.5 |
| CC(=O)NCCC1CCCCN1S(=O)(=O)c1cccc(C#N)c1 (centres undefined) | Percent Effect | 8.64 |
| Cc1nn(C)c(C)c1-c1cncc(C2CCN(S(C)(=O)=O)CC2)n1 | Percent Effect | 3.85 |
| O=C(Nc1cccc(OCc2ccc(F)cc2)c1)C1COCCO1 (centres undefined) | Percent Effect | -3.7 |
| CN1CCN(C(=O)Cc2cccc(F)c2)Cc2cccnc21 | Percent Effect | 3.7 |
| Cn1ccnc1CC1CCCN(C(=O)Nc2cccn(C)c2=O)C1 (centres undefined) | Percent Effect | 13.4 |
| CCc1noc(C(C)N2CCC(C(=O)Nc3cnn(CC)c3)CC2)n1 (centres undefined) | Percent Effect | -10.1 |
| CC(C)c1nc2n(n1)CC(NCc1ccncc1)CC2 (centres undefined) | Percent Effect | 5.2 |
| CC(C)(C)c1ncc(C(=O)NCCNC(=O)c2ccccc2)s1 | Percent Effect | 18.5 |
| COCCN1C(=O)CC(N2CCN(c3ccc(OC)cc3)CC2)C1=O (centres undefined) | Percent Effect | 15.4 |
| CCN1C[C@H]2CCN(C(C)=O)CC[C@H]2S1(=O)=O | Percent Effect | 5.13 |
| CCn1cc(NC(=O)NCC(O)COc2cccc(F)c2)cn1 (centres undefined) | Percent Effect | 17.1 |
| COc1ccccc1Oc1ncccc1CNC(=O)[C@@H](C)NC(C)=O | Percent Effect | -2.56 |
| CC(C)OCCN(Cc1cccc(O)c1)C1CCC(O)CC1 (centres undefined) | Percent Effect | -1.24 |
| O=C(NCc1cncc2c1CCN(Cc1cccs1)C2)C1CC1 | Percent Effect | 6.41 |
| CC(NC(=O)CNCCn1cccn1)c1ccc2c(c1)OCCO2 (centres undefined) | Percent Effect | 9.76 |
| COc1ccccc1CC(=O)N1CCC(NCc2cc[nH]c2)CC1 | Percent Effect | 23.2 |
| CC(C)CN1CCN(C(=O)Nc2cc(C(F)(F)F)c[nH]c2=O)CC1 | Percent Effect | 12.2 |

* * *

Some compounds, each annotated with its measured Percent Effect.
# assayed.system: Chromo domain-containing protein 1 (Saccharomyces cerevisiae (strain ATCC 204508 / S288c) (Baker's yeast))
# procedure.details: ScCHD-1 Enzyme Inhibition Assay; also: in the data most compounds retested in dose-response had high values
# Format: functional
# Parameters: scale not given: direction of the effect not stated beside the values
# test.settings: 30 µM
readout.label: Percent Effect

| compound | readout.label | test.value |
| --- | --- | --- |
| Cc1noc(CCCC(=O)NC(C)c2ccccn2)n1 (configuration not stated) | Percent Effect | -13.2% |
| CC(C)c1nc2c(n1C)CCN(Cc1nc(-c3ccsc3)no1)C2 | Percent Effect | -0.805% |
| O=c1cc2c(nn1CN1CCN(c3cccc(Cl)c3)CC1)CCC2 | Percent Effect | -2.65% |
| Cc1ccc(CN(CCCn2ccnc2)Cc2c[nH]cn2)s1 | Percent Effect | -25.7% |
| CC(C)C(NC(=O)NCC1(CO)CC1)c1nnc2n1CCC2 (configuration not stated) | Percent Effect | -9.98% |
| O=C1CC(c2ccc(F)c(F)c2)c2snc(C(=O)O)c2N1 (configuration not stated) | Percent Effect | -4.62% |
| COc1c(C2CCCN2Cc2csc(C(C)C)n2)c(C)nn1C (configuration not stated) | Percent Effect | -7.12% |
| O=C(c1ccc2[nH]ccc2c1)N1CCn2cnc(COCC3CC3)c2C1 | Percent Effect | -6.46% |
| O=C(COc1cccc2c1CCC2=O)NCCOc1ccccc1 | Percent Effect | -2.69% |
| Cc1nnc(NC(=O)NCc2cc(F)cc(F)c2)s1 | Percent Effect | -3.4% |
| CCCC(=O)NCc1cc(Br)c(OC)c(OC)c1 | Percent Effect | -8.52% |
| c1coc(-c2nnc(CN3CCOC(Cn4cccn4)C3)o2)c1 (configuration not stated) | Percent Effect | -6.49% |
| C[C@@H]1CN(C(=O)NC2CC2)C[C@]12CCN(c1ccsc1)C2=O | Percent Effect | -3.74% |
| Cc1cccc(CN2CCc3c(nc(N4CCCCC4C)[nH]c3=O)C2)n1 (configuration not stated) | Percent Effect | 2.2% |
| Cc1nc(C)n(C2CCCN(C(=O)Cc3n[nH]c4ccccc34)C2)n1 (configuration not stated) | Percent Effect | -7.79% |
| CCC1=N[C@@]2(CC[C@@H]3CN(Cc4ccc(Cl)cc4)C[C@@H]32)C(=O)N1 | Percent Effect | 0.0576% |
| c1ccc(-c2noc(CN3CCOC(Cn4cccn4)C3)n2)nc1 (configuration not stated) | Percent Effect | 4.99% |
| NC(=O)C(CNC(=O)Cc1ccc(F)cc1)Cc1ccc(F)cc1 (configuration not stated) | Percent Effect | -3.68% |
| CC(C)S(=O)(=O)NCC1CCCN(C(=O)c2ccc3c(c2)OCCO3)C1 (configuration not stated) | Percent Effect | -3.79% |
| CCOCC1CN(C(=O)c2ccncc2)Cc2nn(C)cc21 (configuration not stated) | Percent Effect | -3.97% |
| NCc1cnn(-c2ccccc2C(=O)NCc2ccncc2)c1 | Percent Effect | -5.06% |
| O=C(c1ccncc1)N1CCCn2c(CN3CCCCC3)nnc2C1 | Percent Effect | 1.13% |
| O=C(COCC1CC1)N1CCCC(n2cncn2)C1 (configuration not stated) | Percent Effect | -2.64% |
| O=C(NCc1csc(Br)c1)c1ccc(=O)[nH]n1 | Percent Effect | -8.89% |
| FC1(F)CCN(Cc2cccnc2)CC12CCN(c1ccccn1)C2 (configuration not stated) | Percent Effect | -3.06% |
| O=C(NC1CC1)c1ccc2ccc(N3CCN(CC4CC4)CC3)n2c1 | Percent Effect | -3.97% |
| CC(=O)N(Cc1ncc(C(C)C)o1)C1CCN(CCn2cccn2)C1 (configuration not stated) | Percent Effect | -4.25% |
| CS(=O)(=O)NC1CCCN(C(=O)NCc2cccnc2)C1 (configuration not stated) | Percent Effect | -11.9% |
| CC1CCN(S(=O)(=O)NCc2ccccc2Cn2cncn2)CC1 | Percent Effect | -23.4% |
| CC(=O)c1cn(CCC(=O)NCCC(=O)O)c2ccccc12 | Percent Effect | -3.67% |
| Cc1noc(C)c1CNC(=O)N1CCC(C(O)c2ccccc2)CC1 (configuration not stated) | Percent Effect | -3.08% |
| Cc1nc(C)n(CC2CN(Cc3cccnc3)CCO2)n1 (configuration not stated) | Percent Effect | -5.32% |
| CCn1ccnc1CN1CCOC(CNc2cccnn2)C1 (configuration not stated) | Percent Effect | -8.74% |
| COc1c(C2CCCN2C(=O)c2csc(C(C)C)n2)c(C)nn1C (configuration not stated) | Percent Effect | 0.696% |
| CCCOc1ccc(NC(=O)NCCC(=O)N(C)C)cc1Cl | Percent Effect | -6.34% |
| O=C(C1CCC1)N1CCN(Cc2ccsc2)[C@H]2CS(=O)(=O)C[C@H]21 | Percent Effect | -0.294% |
| CN(C)CC(=O)N1CCCC2(CCC(=O)N(CCc3c[nH]cn3)C2)C1 (configuration not stated) | Percent Effect | -1.67% |
| CC(C)c1noc(C(C)N2CCN(Cc3ccccc3C#N)CC2)n1 (configuration not stated) | Percent Effect | 2.36% |
| Cc1cnn(CC2CCCN2C(=O)CCc2ccsc2)c1 (configuration not stated) | Percent Effect | -15.5% |
| Cc1cc(=O)n(CC(=O)NCCC(C)C)c(-c2cccc(Cl)c2)n1 | Percent Effect | 5.24% |
| CCc1nnc(Nc2cccc(C3CCN(CCO)CC3)n2)s1 | Percent Effect | -26.9% |
| COCCN1CCN(C(C)C(=O)Nc2ccnn2C(C)C)CC1 (configuration not stated) | Percent Effect | -1.09% |
| C[C@H]1C[C@@H]2CCN(C(=O)c3cccn3C)C[C@H]2O1 | Percent Effect | -0.358% |
| Cc1nc(CN2CCC3(CCCN(Cc4cnn(C)c4)C3)C2=O)cs1 (configuration not stated) | Percent Effect | -5.7% |
| CC(C)CCN1CN=C(NS(=O)(=O)c2ccc(F)cc2)NC1 | Percent Effect | -8.81% |
| c1ccc(OC[C@]23COC[C@H]2CN(c2ncccn2)C3)nc1 | Percent Effect | -8.1% |
| Cc1ccc(-c2nc(CN3CCc4nn(C)c(=O)cc4C3)no2)cc1 | Percent Effect | -4.17% |
